# pIC50 per record follows
system: NCI-H358; test: CellTiter-Glo cell viability, IC50 determination; type: cell-based; settings: Homo sapiens, 72 h; NCI-H358 cell line; 3-day CTG assay; read-out: Absolute IC50
pIC50: −log10 of the molar value.

- sampleSmiles: "O=C(Nc1ccc2[nH]nc(-c3ccncc3)c2c1)[C@@H]1CCN(CC(=O)N2CCN(c3ccc(-c4ncccn4)cc3)CC2)C1"
  pIC50: 6.28
- sampleSmiles: "CC(=O)Nc1cccc(-n2c(=O)n(C3CC3)c(=O)c3c(Nc4ccc(I)cc4F)n(C)c(=O)c(C)c32)c1"
  pIC50: 7.30

---

Tested on: HM-7
Assay: CellTiter-Glo cell viability, IC50 determination
Format: cell-based
Conditions: 72 h; HM-7 cell line; 3-day CTG assay; read-out: Absolute IC50
Description: All the cells will be cultured in the media supplemented with 10% FBS except for which are marked specially, in the temperature of 37° C., 5% CO2 and 95% humidity. Cell viability is assayed by using CellTiter-Glo® Luminescent Cell Viability Assay Kit (Cat. No.: G7572, Promega. Store at −20° C.). […] On Day 0, for plate A group, 10 μl culture medium was added to each well for T0 reading. […] Luminescence was recorded using EnVision Multi Label Reader. […]
pIC50: −log10 of the molar value.
# pIC50 per record follows
valueKind: pIC50

- sampleSmiles: "CC(=O)Nc1cccc(-n2c(=O)n(C3CC3)c(=O)c3c(Nc4ccc(I)cc4F)n(C)c(=O)c(C)c32)c1"
  reportedResult: 6.41
- sampleSmiles: "O=C(Nc1ccc2[nH]nc(-c3ccncc3)c2c1)[C@@H]1CCN(CC(=O)N2CCN(c3ccc(-c4ncccn4)cc3)CC2)C1"
  reportedResult: 6.10

---

# pIC50 per record follows
test system: NCI-H2009; assay: CellTiter-Glo cell viability, IC50 determination; format: cell-based; conditions: Homo sapiens, 72 h; NCI-H2009 cell line; 3-day CTG assay; read-out: Absolute IC50
pIC50: −log10 of the molar value.
valueKind: pIC50

- sampleSmiles: "CC(=O)Nc1cccc(-n2c(=O)n(C3CC3)c(=O)c3c(Nc4ccc(I)cc4F)n(C)c(=O)c(C)c32)c1"
  reportedResult: 6.39
- sampleSmiles: "O=C(Nc1ccc2[nH]nc(-c3ccncc3)c2c1)[C@@H]1CCN(CC(=O)N2CCN(c3ccc(-c4ncccn4)cc3)CC2)C1"
  reportedResult: 5.36

---

Test system: RKO
Assay: CellTiter-Glo cell viability, IC50 determination
Type: cell-based
Settings: Homo sapiens, 72 h; RKO cell line; 3-day CTG assay; read-out: Absolute IC50
Experimental: All the cells will be cultured in the media supplemented with 10% FBS except for which are marked specially, in the temperature of 37° C., 5% CO2 and 95% humidity. Cell viability is assayed by using CellTiter-Glo® Luminescent Cell Viability Assay Kit (Cat. No.: G7572, Promega. Store at −20° C.). […] On Day 0, for plate A group, 10 μl culture medium was added to each well for T0 reading. […] Luminescence was recorded using EnVision Multi Label Reader. […]
pIC50: −log10 of the molar value.
# pIC50 per record follows

- molecule: "CC(=O)Nc1cccc(-n2c(=O)n(C3CC3)c(=O)c3c(Nc4ccc(I)cc4F)n(C)c(=O)c(C)c32)c1 [Trametinib]"
  testedSystem: "RKO"
  pIC50: 5.17
- molecule: "O=C(Nc1ccc2[nH]nc(-c3ccncc3)c2c1)[C@@H]1CCN(CC(=O)N2CCN(c3ccc(-c4ncccn4)cc3)CC2)C1 [SCH772984]"
  testedSystem: "RKO"
  pIC50: 4.76

Reference source for all entries: patent US10501805B2
